- EXPERIMENTAL SYSTEM: GPR119 (Homo sapiens, UniProt Q8TDV5)
- Sequence (Q8TDV5 whole entry): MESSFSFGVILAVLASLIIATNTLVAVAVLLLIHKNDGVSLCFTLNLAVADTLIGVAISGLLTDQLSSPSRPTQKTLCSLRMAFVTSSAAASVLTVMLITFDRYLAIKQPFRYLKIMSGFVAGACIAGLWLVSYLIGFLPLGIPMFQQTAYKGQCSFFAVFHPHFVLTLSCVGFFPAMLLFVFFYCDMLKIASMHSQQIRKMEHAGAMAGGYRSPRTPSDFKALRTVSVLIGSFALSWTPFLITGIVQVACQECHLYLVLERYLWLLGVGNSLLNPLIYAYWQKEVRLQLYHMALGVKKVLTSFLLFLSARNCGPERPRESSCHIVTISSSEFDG
- MEASUREMENT NOTES: Human Tet-Inducible cAMP Assay (hEC50, Table 1)
- CONDITION LABEL: human GPR119 agonist activity, cAMP
pEC50: −log10 of the molar value.
QUANTITY: pEC50

CC(C)(C)OC(=O)N1CCC(n2cnc3c(Nc4ccc(C#N)cc4F)ncnc32)CC1 = 6.54

1. Cc1ncccc1Oc1ncnc2c1cnn2C1CCN(C(=O)OCc2ccccc2)CC1.Cl [Example 17, hydrochloride salt]
2. CCc1cnc(N2CCC(n3nnc4c(Nc5ccc(S(C)(=O)=O)cc5F)ncnc43)CC2)nc1
3. CS(=O)(=O)c1ccc(Nc2ncnc3c2cnn3C2CCN(c3ncccn3)CC2)c(F)c1
Ask: Returns the items ordered by pEC50, from maximum to minimum. I'd appreciate it if you listed the labels in the requested order.
Result: 2, 3, 1
